Test system: 429239-143-T-J1-PDC complex spheroid viability
method summary: Anticancer human tumor 429239-143-T-J1-PDC patient-derived small cell lung carcinoma cell line growth inhibition [POLQ]
condition context: second compound 0.316 µM; first compound 0.0316 µM; active compounds read low
measurement type: viability, T/C (%)
All answers are understood in %, so give the number only.

[ask] Find viability, T/C (429239-143-T-J1-PDC complex spheroid viability) for the entry CCCS(=O)(=O)Nc1ccc(F)c(C(=O)c2c[nH]c3ncc(-c4ccc(Cl)cc4)cc23)c1F + Nc1ccc(C#CCN(C(=O)Cc2ncc(C(F)(F)F)cc2C(F)(F)F)c2ccc(F)cc2)nn1
[reply] 105

[ask] And for CC1COCCN1c1cc(C2(O)CC3CCC(C2)O3)c2cnn(-c3ccn[nH]3)c2n1 (stereo not given) + COC1C(OC(N)=O)C(O)C(Oc2ccc3c(O)c(NC(=O)c4ccc(O)c(CC=C(C)C)c4)c(=O)oc3c2C)OC1(C)C ?
[reply] 62.4

[ask] Now this one: CC(C)n1c(=O)n(C)c2cnc3cc(F)c(-c4ccc(OCCCN5CCCCC5)nc4)cc3c21 + COC1C(OC(N)=O)C(O)C(Oc2ccc3c(O)c(NC(=O)c4ccc(O)c(CC=C(C)C)c4)c(=O)oc3c2C)OC1(C)C
[reply] 109

[ask] Ok, now O=C(c1cc(Cc2n[nH]c(=O)c3ccccc23)ccc1F)N1CCN(C(=O)C2CC2)CC1 + COC1C(OC(N)=O)C(O)C(Oc2ccc3c(O)c(NC(=O)c4ccc(O)c(CC=C(C)C)c4)c(=O)oc3c2C)OC1(C)C
[reply] 103

[ask] Try the compound O=C(Nc1ccc(O)c(NS(=O)(=O)c2ccc(F)cc2)c1)c1ccc(-c2ccccc2)cc1 + Nc1ccc(C#CCN(C(=O)Cc2ncc(C(F)(F)F)cc2C(F)(F)F)c2ccc(F)cc2)nn1
[reply] 111

---

For each record, write down the corresponding viability, T/C.
System: 429239-143-T-J1-PDC complex spheroid viability
method summary: Anticancer human tumor 429239-143-T-J1-PDC cell line growth inhibition [POLQ];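 further: luminescence signal used as surrogate measure of viable cells; spheroids exposed to compounds for seven days before readout; 100% = DMSO vehicle control viability as luminescence relative to vehicle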
condition context: second compound 0.316 µM; first compound 3.16 µM; active compounds read low
Response body: numeric value in %, unit text excluded.

[ask] What does the record list as viability, T/C for C#Cc1c(F)ccc2cc(O)cc(-c3ncc4c(N5CC6CCC(C5)N6)nc(OCC56CCCN5CC(F)C6)nc4c3F)c12 (stereo not given) + Nc1ccc(C#CCN(C(=O)Cc2ncc(C(F)(F)F)cc2C(F)(F)F)c2ccc(F)cc2)nn1 ?
[reply] 99.9

[ask] Same question, CC1COCCN1c1cc(-c2ccnn2C)c2ccnc(-c3ccn[nH]3)c2n1 (stereo not given) + COC1C(OC(N)=O)C(O)C(Oc2ccc3c(O)c(NC(=O)c4ccc(O)c(CC=C(C)C)c4)c(=O)oc3c2C)OC1(C)C this time
[reply] 10.9

[ask] Can you check COc1cc(C2c3cc4c(cc3C(OC3OC5COC(C)OC5C(O)C3O)C3COC(=O)C23)OCO4)cc(OC)c1O (stereo not given) + COC1C(OC(N)=O)C(O)C(Oc2ccc3c(O)c(NC(=O)c4ccc(O)c(CC=C(C)C)c4)c(=O)oc3c2C)OC1(C)C next?
[reply] 16.6

[ask] Also check CCc1cc2c(N3CCc4c(cc(Cn5ccnc5)cc4-c4cn(C)nc4C(F)(F)F)C3=O)ccnc2c(OC)n1 + Cc1cccc(N(C)C(=O)C2C(O)CCN2c2nc(C)cc(C(F)(F)F)c2C#N)c1
[reply] 78.3

[ask] Now this one: O=C(Nc1ccc(O)c(NS(=O)(=O)c2ccc(F)cc2)c1)c1ccc(-c2ccccc2)cc1 + Cc1cccc(N(C)C(=O)C2C(O)CCN2c2nc(C)cc(C(F)(F)F)c2C#N)c1
[reply] 118

[ask] Then this molecule: CC(C)n1c(=O)n(C)c2cnc3cc(F)c(-c4ccc(OCCCN5CCCCC5)nc4)cc3c21 + COC1C(OC(N)=O)C(O)C(Oc2ccc3c(O)c(NC(=O)c4ccc(O)c(CC=C(C)C)c4)c(=O)oc3c2C)OC1(C)C
[reply] 90.6

[ask] Now consider C=CC(=O)N1CCN(c2nc(=O)n(-c3c(C)ccnc3C(C)C)c3nc(-c4c(O)cccc4F)c(F)cc23)C(C)C1 (stereo not given) + Cc1cccc(N(C)C(=O)C2C(O)CCN2c2nc(C)cc(C(F)(F)F)c2C#N)c1 and answer again.
[reply] 108

[ask] Same read-out for COc1ccc([C@@H](O)c2cc(-c3ncnc4cc(N5CCOCC5)ccc34)c(F)cc2Cl)nn1 + Cc1cccc(N(C)C(=O)C2C(O)CCN2c2nc(C)cc(C(F)(F)F)c2C#N)c1 ?
[reply] 39.2

[ask] Next up: COc1cc2cc(C(=O)CCC(=O)O)sc2cc1OC + COC1C(OC(N)=O)C(O)C(Oc2ccc3c(O)c(NC(=O)c4ccc(O)c(CC=C(C)C)c4)c(=O)oc3c2C)OC1(C)C
[reply] 95.1

[ask] Another: CC1COCCN1c1cc(C2(S(C)(=N)=O)CC2)nc(-c2ccnc3[nH]ccc23)n1 (stereo not given) + COC1C(OC(N)=O)C(O)C(Oc2ccc3c(O)c(NC(=O)c4ccc(O)c(CC=C(C)C)c4)c(=O)oc3c2C)OC1(C)C
[reply] 42.4

[ask] Now this one: CC1COCCN1c1cc(C2(O)CC3CCC(C2)O3)c2cnn(-c3ccn[nH]3)c2n1 (stereo not given) + Nc1ccc(C#CCN(C(=O)Cc2ncc(C(F)(F)F)cc2C(F)(F)F)c2ccc(F)cc2)nn1
[reply] 3.37

[ask] Note, next up: CC(C)n1c(=O)n(C)c2cnc3cc(F)c(-c4ccc(OCCCN5CCCCC5)nc4)cc3c21 + Cc1cccc(N(C)C(=O)C2C(O)CCN2c2nc(C)cc(C(F)(F)F)c2C#N)c1
[reply] 81.8

[ask] Then this molecule: O=c1[nH]cc(F)c(=O)[nH]1 + COC1C(OC(N)=O)C(O)C(Oc2ccc3c(O)c(NC(=O)c4ccc(O)c(CC=C(C)C)c4)c(=O)oc3c2C)OC1(C)C
[reply] 62.9

[ask] Follow-up entry: C=CC(=O)N1CCN(c2nc(=O)n(-c3c(C)ccnc3C(C)C)c3nc(-c4c(O)cccc4F)c(F)cc23)C(C)C1 (stereo not given) + Nc1ccc(C#CCN(C(=O)Cc2ncc(C(F)(F)F)cc2C(F)(F)F)c2ccc(F)cc2)nn1
[reply] 109

[ask] // repeat for COc1ccc([C@@H](O)c2cc(-c3ncnc4cc(N5CCOCC5)ccc34)c(F)cc2Cl)nn1 + Nc1ccc(C#CCN(C(=O)Cc2ncc(C(F)(F)F)cc2C(F)(F)F)c2ccc(F)cc2)nn1 and report
[reply] 88.8

[ask] Same read-out for C#Cc1c(F)ccc2cc(O)cc(-c3ncc4c(N5CC6CCC(C5)N6)nc(OCC56CCCN5CC(F)C6)nc4c3F)c12 (stereo not given) + Cc1cccc(N(C)C(=O)C2C(O)CCN2c2nc(C)cc(C(F)(F)F)c2C#N)c1 ?
[reply] 89.2

[ask] Same question, CCc1cc2c(N3CCc4c(cc(Cn5ccnc5)cc4-c4cn(C)nc4C(F)(F)F)C3=O)cc(C)nc2c(OC)n1 + COC1C(OC(N)=O)C(O)C(Oc2ccc3c(O)c(NC(=O)c4ccc(O)c(CC=C(C)C)c4)c(=O)oc3c2C)OC1(C)C this time
[reply] 41.5

[ask] Okay, and CNCc1ccc(-c2[nH]c3cc(F)cc4c3c2CCNC4=O)cc1 + Nc1ccc(C#CCN(C(=O)Cc2ncc(C(F)(F)F)cc2C(F)(F)F)c2ccc(F)cc2)nn1 ?
[reply] 79.4

[ask] Record: O=c1[nH]cc(F)c(=O)[nH]1 + Cc1cccc(N(C)C(=O)C2C(O)CCN2c2nc(C)cc(C(F)(F)F)c2C#N)c1
[reply] 56.5

[ask] Check CC(C)n1c(=O)n(C)c2cnc3cc(F)c(-c4ccc(OCCCN5CCCCC5)nc4)cc3c21 + Nc1ccc(C#CCN(C(=O)Cc2ncc(C(F)(F)F)cc2C(F)(F)F)c2ccc(F)cc2)nn1 too.
[reply] 106

// data source = PubChem BioAssay AID1963845
